For each entry below, report its pIC50 value.
Molecular target: Acetylcholinesterase (Mus musculus, UniProt P21836)
Sequence (P21836 whole entry): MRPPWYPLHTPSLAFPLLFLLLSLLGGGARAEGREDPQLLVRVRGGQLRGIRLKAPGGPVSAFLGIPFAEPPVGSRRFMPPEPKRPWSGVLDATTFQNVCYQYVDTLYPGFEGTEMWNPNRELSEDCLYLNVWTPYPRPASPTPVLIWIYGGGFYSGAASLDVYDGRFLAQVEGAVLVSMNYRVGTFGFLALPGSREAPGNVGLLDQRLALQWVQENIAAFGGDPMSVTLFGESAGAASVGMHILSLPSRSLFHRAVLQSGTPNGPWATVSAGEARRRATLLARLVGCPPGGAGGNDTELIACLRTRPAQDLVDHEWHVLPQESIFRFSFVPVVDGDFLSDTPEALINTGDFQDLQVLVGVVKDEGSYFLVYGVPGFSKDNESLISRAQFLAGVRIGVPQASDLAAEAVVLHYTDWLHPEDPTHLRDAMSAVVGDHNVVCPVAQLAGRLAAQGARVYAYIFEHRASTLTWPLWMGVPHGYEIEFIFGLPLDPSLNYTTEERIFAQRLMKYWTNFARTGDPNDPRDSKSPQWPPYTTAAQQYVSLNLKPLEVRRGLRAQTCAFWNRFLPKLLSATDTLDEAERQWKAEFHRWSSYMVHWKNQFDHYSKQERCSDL
Numbers only, as −log10 of the molar value.

See these solved cases before continuing.
{"compound_structure": "O=C(NCCC1CCN(Cc2ccccc2)CC1)c1cccc([N+](=O)[O-])c1", "pIC50": 6.64}
{"compound_structure": "O=C(NCCC1CCN(Cc2ccccc2)CC1)c1ccc(F)cc1", "pIC50": 7.07}
{"compound_structure": "O=C(c1ccccc1)N(CCC1CCN(Cc2ccccc2)CC1)Cc1ccccc1", "pIC50": 6.03}

Moving on to the next compound.
Sample O=C(c1ccccc1)N(CCC1CCN(Cc2ccccc2)CC1)c1ccccc1 ; pIC50 observed: 7.46

Origin of the recorded values: ChEMBL document CHEMBL1124815
